target: GST-tagged recombinant human TYRO3 kinase domain (Homo sapiens (Human)); test: TYRO3 Enzyme Assay (LanthaScreen Eu Kinase Binding, TR-FRET); conditions: averaged IC50
pIC50: −log10 of the molar value.
Listing of entries alongside the reported pIC50.
measure: pIC50

[[record]]
molecule = "CNc1cc2c(cn1)c(-c1ccc(C3(N4CCN(C)CC4)CC3)cc1)nn2[C@H]1CC[C@@H](Oc2ccc(=O)n(C)n2)CC1"
reading = "6.00 to 7.00"

[[record]]
molecule = "CCNc1cc2c(cn1)c(-c1cnn(C(C)(C)C#N)c1)nn2[C@H]1CC[C@@H](Oc2nccc(C(F)(F)F)c2F)CC1"
reading = "6.00 to 7.00"

[[record]]
molecule = "CCNc1cc2c(cn1)c(-c1ccc(CN3CC(F)C3)cc1)nn2[C@H]1CC[C@@H](Oc2ccc(=O)n(C)n2)CC1"
reading = "5.00 to 6.00"

[[record]]
molecule = "CNc1cc2c(cn1)c(-c1cnn(C)c1)nn2[C@H]1CC[C@@H](Oc2cnn(C)c2C(F)(F)F)CC1"
reading = "7.00 to 8.00"

[[record]]
molecule = "CCNc1cc2c(cn1)c(-c1cnn(C(C)(C)C#N)c1)nn2[C@H]1CC[C@@H](Oc2ccc(=O)n(CC)n2)CC1"
reading = "5.00 to 6.00"

[[record]]
molecule = "CCNc1cc2c(cn1)c(-c1ccc3c(c1)CN(C)S3(=O)=O)nn2[C@H]1CC[C@@H](Oc2cn(C)nc2C(F)(F)F)CC1"
reading = "> 8.00"

[[record]]
molecule = "CNc1cc2c(cn1)c(-c1cnn(C)c1)nn2[C@H]1CC[C@@H](Oc2ccc(=O)n(CCOC)n2)CC1"
reading = "5.00 to 6.00"

[[record]]
molecule = "CCNc1cc2c(cn1)c(-c1ccc(S(C)(=O)=O)cc1)nn2[C@H]1CC[C@@H](Oc2cn(C)nc2C(F)(F)F)CC1"
reading = "> 8.00"

[[record]]
molecule = "CCNc1cc2c(cn1)c(C1CCN(C)C1)nn2[C@H]1CC[C@@H](Oc2nccc(C(F)(F)F)c2F)CC1 (stereo partly drawn)"
reading = "7.00 to 8.00"

[[record]]
molecule = "CNc1cc2c(cn1)c(-c1cnn(C)c1)nn2[C@H]1CC[C@@H](Oc2cccnc2C(F)(F)F)CC1"
reading = "> 8.00"

[[record]]
molecule = "CNc1cc2c(cn1)c(-c1cnn(C(C)(C)C#N)c1)nn2[C@H]1CC[C@@H](Oc2cn(C)nc2C(F)(F)F)CC1"
reading = "> 8.00"

[[record]]
molecule = "CNc1cc2c(cn1)c(-c1cnn(C)c1)nn2[C@H]1CC[C@@H](Oc2ccc(=O)[nH]n2)CC1"
reading = "5.00 to 6.00"

[[record]]
molecule = "CCNc1cc2c(cn1)c(-c1cnn(CC(=O)NC)c1)nn2[C@H]1CC[C@@H](Oc2nccc(C(F)(F)F)c2F)CC1"
reading = "> 8.00"

[[record]]
molecule = "CCCNc1cc2c(cn1)c(-c1cnn(C)c1)nn2[C@H]1CC[C@@H](Oc2ccccc2F)CC1"
reading = "> 8.00"

[[record]]
molecule = "CCNc1cc2c(cn1)c(N1CCC(OC)CC1)nn2[C@H]1CC[C@@H](Oc2nccc(C(F)(F)F)c2F)CC1"
reading = "> 8.00"

[[record]]
molecule = "CNc1cc2c(cn1)c(-c1ccc(F)cc1)nn2[C@H]1CC[C@@H](Oc2ccccn2)CC1"
reading = "5.00 to 6.00"

[[record]]
molecule = "CCNc1cc2c(cn1)c(N1CC[C@H](N)C1)nn2[C@H]1CC[C@@H](Oc2nccc(C(F)(F)F)c2F)CC1"
reading = "7.00 to 8.00"

[[record]]
molecule = "CNc1cc2c(cn1)c(-c1cnn(C)c1)nn2[C@H]1CC[C@@H](Oc2ccc(OC)nc2)CC1"
reading = "5.00 to 6.00"

[[record]]
molecule = "CNc1cc2c(cn1)c(-c1ccc(S(C)(=O)=O)cc1)nn2[C@H]1CC[C@@H](Oc2cn(C)nc2C(F)(F)F)CC1"
reading = "> 8.00"

[[record]]
molecule = "CCNc1cc2c(cn1)c(-c1ccc(CN3CCN(C)CC3)cc1)nn2[C@H]1CC[C@@H](Oc2nccc(C(F)(F)F)c2F)CC1"
reading = "7.00 to 8.00"

[[record]]
molecule = "CCNc1cc2c(cn1)c(-c1cnn(CC(N)=O)c1)nn2[C@H]1CC[C@@H](Oc2nccc(C(F)(F)F)c2F)CC1"
reading = "> 8.00"

[[record]]
molecule = "CCNc1cc2c(cn1)c(C1CCCC1)nn2[C@H]1CC[C@@H](Oc2nccc(C(F)(F)F)c2F)CC1"
reading = "5.00 to 6.00"

[[record]]
molecule = "CNc1cc2c(cn1)c(-c1cnn(C(C)(C)C#N)c1)nn2[C@H]1CC[C@@H](Oc2cccnc2C(F)(F)F)CC1"
reading = "> 8.00"

[[record]]
molecule = "CCNc1cc2c(cn1)c(N1CCNCC1)nn2[C@H]1CC[C@@H](Oc2cccc(C(F)(F)F)c2F)CC1"
reading = "> 8.00"

[[record]]
molecule = "CNc1cc2c(cn1)c(-c1cnn(C)c1)nn2[C@H]1CC[C@@H](Oc2cccc(OCC(F)(F)F)n2)CC1"
reading = "5.00 to 6.00"

[[record]]
molecule = "CCNc1cc2c(cn1)c(-c1cnn(CCN3CCN(C)CC3)c1)nn2[C@H]1CC[C@@H](Oc2nccc(C(F)(F)F)c2F)CC1"
reading = "> 8.00"

[[record]]
molecule = "CCNc1cc2c(cn1)c(-c1cnn(C(C)(C)C#N)c1)nn2[C@H]1CC[C@@H](Oc2cccnc2C(F)(F)F)CC1"
reading = "> 8.00"


----------
molecular target: GST-tagged recombinant human TYRO3 kinase domain (Homo sapiens (Human), UniProt Q06418); experiment: TYRO3 Enzyme Assay (LanthaScreen Eu Kinase Binding, TR-FRET); conditions: averaged IC50
Sequence (Q06418 518-790): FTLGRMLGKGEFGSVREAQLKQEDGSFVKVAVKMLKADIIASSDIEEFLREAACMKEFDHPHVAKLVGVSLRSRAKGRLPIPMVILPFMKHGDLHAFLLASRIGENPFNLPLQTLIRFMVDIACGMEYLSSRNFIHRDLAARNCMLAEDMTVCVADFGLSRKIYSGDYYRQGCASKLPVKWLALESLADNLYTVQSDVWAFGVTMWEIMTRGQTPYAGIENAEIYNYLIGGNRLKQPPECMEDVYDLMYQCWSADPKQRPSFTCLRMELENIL
Listing of entries alongside the reported IC50.
measure: IC50

[[record]]
compound = "CNc1cc2c(cn1)c(-c1cnn(C)c1)nn2[C@H]1CC[C@@H](Oc2cc(=O)cnn2C)CC1"
measure = "IC50"
reading = "1000 to 10000 nM"

[[record]]
compound = "CCNc1cc2c(cn1)c(-c1cnn(C(C)(C)C#N)c1)nn2[C@H]1CC[C@@H](Oc2cn[nH]c2C(F)(F)F)CC1"
measure = "IC50"
reading = "< 10 nM"

[[record]]
compound = "CCNc1cc2c(cn1)c(N1CC[C@@H](N)C1)nn2[C@H]1CC[C@@H](Oc2nccc(C(F)(F)F)c2F)CC1"
measure = "IC50"
reading = "10 to 100 nM"

[[record]]
compound = "CNc1cc2c(cn1)c(-c1cnn(C)c1)nn2[C@H]1CC[C@@H](Oc2cccnn2)CC1"
measure = "IC50"
reading = "1000 to 10000 nM"

[[record]]
compound = "CCNc1cc2c(cn1)c(-c1ccc(=O)n(C)c1)nn2[C@H]1CC[C@@H](Oc2nccc(C(F)(F)F)c2F)CC1"
measure = "IC50"
reading = "10 to 100 nM"

[[record]]
compound = "CCNc1cc2c(cn1)c(-c1ccn(C)c(=O)c1)nn2[C@H]1CC[C@@H](Oc2nccc(C(F)(F)F)c2F)CC1"
measure = "IC50"
reading = "10 to 100 nM"

[[record]]
compound = "CCNc1cc2c(cn1)c(N1CC[C@H](NC)C1)nn2[C@H]1CC[C@@H](Oc2cccc(C(F)(F)F)c2F)CC1"
measure = "IC50"
reading = "10 to 100 nM"

[[record]]
compound = "CNc1cc2c(cn1)c(-c1cncc(C(F)(F)F)c1)nn2[C@H]1CC[C@@H](Oc2ccc(=O)n(C)n2)CC1"
measure = "IC50"
reading = "1000 to 10000 nM"

[[record]]
compound = "CCNc1cc2c(cn1)c([C@H]1CC[C@@H](N(C)C)CC1)nn2[C@H]1CC[C@@H](Oc2nccc(C(F)(F)F)c2F)CC1"
measure = "IC50"
reading = "< 10 nM"

[[record]]
compound = "CCNc1cc2c(cn1)c(N1CC[C@H](O)C1)nn2[C@H]1CC[C@@H](Oc2nccc(C(F)(F)F)c2F)CC1"
measure = "IC50"
reading = "10 to 100 nM"

[[record]]
compound = "CCNc1cc2c(cn1)c(-c1cnn(C[C@@H](O)C(C)(C)O)c1)nn2[C@H]1CC[C@@H](Oc2cccc(F)c2F)CC1"
measure = "IC50"
reading = "< 10 nM"

[[record]]
compound = "CNc1cc2c(cn1)c(-c1cnn(C)c1)nn2[C@H]1CC[C@@H](Oc2ccc(C(=O)NCCOC)cc2)CC1"
measure = "IC50"
reading = "1000 to 10000 nM"

[[record]]
compound = "CCNc1cc2c(cn1)c(N1CC[C@@H](NC)C1)nn2[C@H]1CC[C@@H](Oc2nccc(C(F)(F)F)c2F)CC1"
measure = "IC50"
reading = "< 10 nM"

[[record]]
compound = "CNc1cc2c(cn1)c(-c1cnn(C)c1)nn2[C@H]1CC[C@@H](Oc2ccn(C)c(=O)c2)CC1"
measure = "IC50"
reading = "< 10 nM"

[[record]]
compound = "CCNc1cc2c(cn1)c(-c1cnn(C)c1)nn2[C@H]1CC[C@@H](Oc2cccc(F)c2F)CC1"
measure = "IC50"
reading = "10 to 100 nM"

[[record]]
compound = "CCNc1cc2c(cn1)c(-c1ccc3c(c1)CN(C)S3(=O)=O)nn2[C@H]1CC[C@@H](Oc2cnn(C)c2C(F)(F)F)CC1"
measure = "IC50"
reading = "1000 to 10000 nM"

[[record]]
compound = "CCNc1cc2c(cn1)c(-c1cnn(C[C@@H](O)CO)c1)nn2[C@H]1CC[C@@H](Oc2cc(Cl)ccn2)CC1"
measure = "IC50"
reading = "10 to 100 nM"

[[record]]
compound = "CCNc1cc2c(cn1)c(-c1cnn(C[C@@H](O)CO)c1)nn2[C@H]1CC[C@@H](Oc2ccc(F)cc2F)CC1"
measure = "IC50"
reading = "10 to 100 nM"

[[record]]
compound = "Cn1cc(-c2nn([C@H]3CC[C@@H](Oc4ccc(=O)n(C)n4)CC3)c3cc(Nc4cccc(F)c4)ncc23)cn1"
measure = "IC50"
reading = "< 10 nM"

[[record]]
compound = "CNc1cc2c(cn1)c(-c1ccc(CN3CCN(CCO)CC3)cc1)nn2[C@H]1CC[C@@H](Oc2ccc(=O)n(C)n2)CC1"
measure = "IC50"
reading = "100 to 1000 nM"

[[record]]
compound = "CNc1cc2c(cn1)c(-c1cnn(C)c1)nn2[C@H]1CC[C@@H](Oc2nccc(C(F)(F)F)c2F)CC1"
measure = "IC50"
reading = "10 to 100 nM"

[[record]]
compound = "CNc1cc2c(cn1)c(-c1ccc(CN3CCN(C)CC3)cc1)nn2[C@H]1CC[C@@H](Oc2cn(C)nc2C(F)(F)F)CC1"
measure = "IC50"
reading = "< 10 nM"

[[record]]
compound = "CCNc1cc2c(cn1)c(-c1cnn(C)c1)nn2[C@H]1CC[C@H](Oc2cccc(F)c2)CC1"
measure = "IC50"
reading = "1000 to 10000 nM"

[[record]]
compound = "CCNc1cc2c(cn1)c(-c1cnn(C[C@H](O)CO)c1)nn2[C@H]1CC[C@@H](Oc2cccnc2C(F)(F)F)CC1"
measure = "IC50"
reading = "< 10 nM"

[[record]]
compound = "CCNc1cc2c(cn1)c(-c1cnc(C)o1)nn2[C@H]1CC[C@@H](Oc2nccc(C(F)(F)F)c2F)CC1"
measure = "IC50"
reading = "100 to 1000 nM"

[[record]]
compound = "CCNc1cc2c(cn1)c(C1CCCN(C)C1)nn2[C@H]1CC[C@@H](Oc2nccc(C(F)(F)F)c2F)CC1 (stereo partly drawn)"
measure = "IC50"
reading = "10 to 100 nM"

[[record]]
compound = "CNc1cc2c(cn1)c(-c1cnn(C(CO)CO)c1)nn2[C@H]1CC[C@@H](Oc2cccnc2C(F)(F)F)CC1"
measure = "IC50"
reading = "< 10 nM"

